biological target: T1, His-tagged P3028 (human, not fully specified); assay: chip ELISA
T1 construct: the tag is put first after 'PGE73=His-tag-P3028'; also called PGE73; not shown: His-tag
T1 peptide: {His‑tag}-VFDEFKPLVEEPQNLIK
No end group written: not given here.
Please enter Satisfied where ELISA signal is greater than or equal to 400, and Not satisfied where it is lower.

Test whether the binder KKLDTFIVKLSLFTER [P28R F7I] records ELISA signal of 400 or higher.
Satisfied

I'd appreciate it if you could say whether KKLNTFFVKLSLFTER [P28R D4N] has ELISA signal at least equal to 400.
Not satisfied

For this binder, is measured ELISA signal 400 or higher? KKLRTFFVKLSLFTER [P28R D4R]
Not satisfied

Is it the case that KKLDTVFVKLSLFTER [P28R F6V] has ELISA signal reaching or exceeding 400?
Satisfied

Test whether the binder KKLDTFFEKLSLFTER [P28R V8E] records ELISA signal of 400 or higher.
Not satisfied

Is it the case that KKLDTFFVWLSLFTER [P28R K9W] has ELISA signal reaching or exceeding 400?
Not satisfied

I'd appreciate it if you could say whether KKLDTRFVKLSLFTER [P28R F6R] has ELISA signal at least equal to 400.
Not satisfied

Please indicate if the recorded ELISA signal for KKRDTFFVKLSLFTER [P28R L3R] meets or exceeds 400.
Not satisfied

Is it the case that KKEDTFFVKLSLFTER [P28R L3E] has ELISA signal reaching or exceeding 400?
Satisfied

API: above_or_equal(metric=ELISA signal, cutoff=400) for item KKLDTFFVKLSHFTER [P28R L12H]
Satisfied

Reported ELISA signal reaches at least 400 for KKLDTSFVKLSLFTER [P28R F6S] ?
Satisfied

Is the recorded value of ELISA signal equal to or greater than 400 for this binder? KKHDTFFVKLSLFTER [P28R L3H]
Satisfied

Assess whether reported ELISA signal for KKLDTFFVKLSLFVER [P28R T14V] sits at 400 or higher.
Not satisfied

Hello, I need to know if KKLDTFFSKLSLFTER [P28R V8S] has measured ELISA signal not below 400. Thanks!
Not satisfied
